B1: Zinc finger homeobox protein 3, residues 2147 to 2202; numbered along this chain, Q15911 (parent)
chain: RPRTRITDDQLRVLRQYFDINNSPSEEQIKEMADKSGLPQKVIKHWFRNTLFKERQ

Variants of: B1
Assay: abundance fitness (aPCA) (normalised: wild type 0, dead -1); higher = more abundant; growth selection in yeast, the domain comes from the species named
Conditions: Homo sapiens
Label y when abundance fitness >= -0.08; otherwise n.

Look over these answered cases.
{"columns": ["MUTATION", "ASSIGNED LABEL"],
 "data": [
  ["D8L", "y"],
  ["H45G", "y"],
  ["N22A", "y"],
  ["F47R", "n"],
  ["D34V", "y"]
]}

Quick check: does R5D have abundance fitness greater than or equal to -0.08?
y

Same for K30H
n

Same for F18M
n

Same for R12D
n
